Origin of values: patent US9980943B2

Listed compounds paired with reported CMV-LACZ in Myotubes, signal relative to DMSO
System: β-galactosidase in CMV-LacZ C2C12 myotubes
Assay: CMV-LacZ secondary screen in C2C12 myotubes (β-Gal stabilizing assay)
Type: cell-based, mouse
Details: 20 uM; C2C12 CMV-LacZ myotubes; fold relative to DMSO
measurementName: CMV-LACZ in Myotubes, signal relative to DMSO

>  <compound>
Cc1[nH]c(=O)[nH]c(=O)c1S(=O)(=O)Nc1ccc(F)cc1Cl

>  <result>
0.8318

$$$$
>  <compound>
Cc1ccc(Cn2nnc3c(=O)[nH]c(C4CCCN(C(=O)c5ccco5)C4)nc32)cc1 (centres unmarked)

>  <result>
1.1842

$$$$
>  <compound>
COc1ccc(Cl)cc1NC(=O)CC(=O)Nc1cc(Cl)ccc1OC

>  <result>
1.4595

$$$$
>  <compound>
O=Cc1ccc(C(=O)OCC(=O)N2CCCC2)cc1

>  <result>
1.029

$$$$
>  <compound>
CCCCNS(=O)(=O)c1ccc2nc(-c3cccnc3)cc(C(=O)NCCOC)c2c1

>  <result>
1.11

$$$$
>  <compound>
CCOc1ccccc1NC(=O)COC(=O)CNS(=O)(=O)c1ccc(C)cc1

>  <result>
1.0160

$$$$
>  <compound>
Cc1ccc(S(=O)(=O)NC(C)C(=O)NC(C)c2cccs2)cc1 (centres unmarked)

>  <result>
1.0515

$$$$
>  <compound>
COc1ccc(C(=O)Cn2nnc(-c3ccccc3NC(=O)c3ccco3)n2)cc1

>  <result>
1.3484

$$$$

---

Test system: α7 integrin (LacZ reporter in α7βgal+/− myoblasts)
Assay: Myoblast α7+/LacZ integrin FDG assay (Burkin assay in myoblasts, 96-well)
Format: cell-based, mouse
Settings: 20 uM; α7+/LacZ myoblasts, 96-well
Parameter class (string): assigned from measured Burkin Assay in Myoblasts, signal relative to DMSO. Ranges: lower: < 0.8; middle: ≥ 0.8 and < 1; upper: ≥ 1

>  <compound>
CCNC(=O)C(=O)Nc1cc2c3c(c1)CCN3C(=O)CC2

>  <label>
upper

$$$$
>  <compound>
Cc1cc(C)nc(NC(=O)c2ccc(Cl)cc2Cl)n1

>  <label>
middle

$$$$
>  <compound>
CCCn1c(-c2cc(OC)c(OC)c(OC)c2)nc2c1c(=O)[nH]c(=O)n2Cc1ccccc1

>  <label>
middle

$$$$
>  <compound>
COC(=O)C1=NNC2(C)C(=O)N(c3ccc(C)cc3)C(=O)C12 (centres unmarked)

>  <label>
middle

$$$$
>  <compound>
COc1cc(NC(=O)OCc2ccccc2)c2ncccc2c1

>  <label>
middle

$$$$
>  <compound>
O=c1[nH]c(SCc2ccc(Cl)cc2)nc2ccsc12

>  <label>
middle

$$$$
>  <compound>
Cn1c(-c2ccccc2)cc2ccccc21

>  <label>
lower

$$$$
>  <compound>
CCC(CC)C(=O)Nc1c(C(=O)N2CCN(c3ccccc3)CC2)oc2ccccc12

>  <label>
upper

$$$$
>  <compound>
CC(=O)Nc1ccc(NC(=O)c2cc(=O)c3cc(C)cc(C)c3o2)cc1

>  <label>
lower

$$$$
>  <compound>
CCCCN(CC)Cc1ccc(CNC(=S)Nc2ccccc2F)o1

>  <label>
middle

$$$$
>  <compound>
Cc1cccc(NC(=O)c2ccc(N3C(=O)C4CCCCC4C3=O)cc2)c1C (centres unmarked)

>  <label>
upper

$$$$
>  <compound>
CCN(C(=O)c1ccc(S(=O)(=O)N(C)C)cc1)C(C)C(=O)Nc1ccc(C)cc1 (centres unmarked)

>  <label>
middle

$$$$
>  <compound>
Br.COc1ccc(C(=O)CN2CCCCC2)cc1

>  <label>
upper

$$$$
>  <compound>
Cc1ccc(C(=O)N2CCN(S(=O)(=O)N3CCOCC3)CC2)cc1

>  <label>
middle

$$$$
>  <compound>
O=c1[nH]c(CN2CCCCC2)nc2c1C1(CCCCC1)Cc1ccccc1-2

>  <label>
upper

$$$$
>  <compound>
COc1cc(C(C(=O)NC2CCCCC2)N(C(=O)c2snc(C(N)=O)c2N)c2ccc(C)cc2)ccc1O (centres unmarked)

>  <label>
lower

$$$$
>  <compound>
CNC(=O)/C(=C\c1cccc(Oc2ccccc2)c1)NC(=O)c1ccccc1

>  <label>
lower

$$$$
